MEASUREMENT_NAME: melting point

Past entries and their recorded results:
Cc1ccc(-c2cncnc2O)cc1 ... 189 to 192 °C
OC1CCCc2ccc(-c3ccc4nc(-c5ccc(Cl)cc5)cn4c3)cc21 (configuration not stated) ... 232 to 234 °C
CS(=O)(=O)C(=C1CN(C(c2ccccc2)c2ccccc2)C1)c1cccc2ccccc12 ... 196 °C
Cc1cccc(C(=O)Nc2c[nH]nc2C(=O)NCCCO)n1 ... 196 to 197 °C
O=C(OCc1ccc(C(F)(F)F)cc1)N1CCC2(CC1)Cn1cc([N+](=O)[O-])nc1O2 ... 189 to 190 °C
Cc1ccc(-c2ccccc2C(N)=O)cc1 ... 128 to 130 °C

Consider Cc1cccc(NC(=O)CN2CCN(c3ncccn3)CC2)c1 . Its measured melting point is 113 to 116 °C

###

MEASUREMENT_NAME: melting point

Past entries and their recorded results:
O[C@H](CCc1cccnc1)COc1ccc(-c2ccc(Cl)cc2)cc1 ... 117 to 118 °C
C[Si](C)(c1ccccc1)C1CC(=O)c2c(nc3ccccc3c2N)C1 (centres undefined) ... 178 to 180 °C
COC(=O)c1ccc2c3cccc4cccc(c5ccc(C(=O)N(C)c6cc(C(C)(C)C)ccc6C(C)(C)C)c1c25)c43 ... 297 to 298 °C

Consider CCCCN(CCCC)c1ccc(C=Cc2ccc(C(C#N)=C(C#N)C#N)s2)c(OCc2ccccc2)c1 . Its measured melting point is 125 to 130 °C

###

Each entry below carries its reported melting point.

Past entries and their recorded results:
COCCOC(=O)C1=C(C)NC(C)C(C(=O)OC(C)C)(c2ccc(F)cc2F)C1 (stereo not given) ... 123 to 126 °C
CC1CN(c2cc3c(cc2F)c(=O)c(C(=O)O)c2n3C(C)S2)CCN1C (stereo not given) ... 198 to 201 °C
O=C(O)CCCCNS(=O)(=O)c1ccc(N2CCCCC2)cc1 ... 115 to 120 °C
COc1cccc2c1OCC(/C=C/C=C/C=C/C(=O)O)=C2 ... 226 to 228 °C

Then this compound:
Consider Cc1nc(C#N)sc1-c1ccncc1 . Its measured melting point is 169 to 170 °C

###

Each entry below carries its reported melting point.

Consider NC(=O)c1cnn2c1N(C(=S)NC(=O)c1ccccc1)CC=C2c1cccc(C(F)(F)F)c1 . Its measured melting point is 210 to 212 °C

Consider COC(=O)CNC(=O)c1[nH]c(C)c(-c2nc3ccc(C(=O)c4ccccc4)cc3[nH]2)c1C . Its measured melting point is 149 to 151 °C

Consider COc1ccc(Cn2cnc3c(=O)[nH]c(N)nc32)cc1 . Its measured melting point is > 300 °C

Consider Cc1cn(C2=CCC(O)CC2)c(=O)[nH]c1=O (racemic) . Its measured melting point is 223 °C

Consider CC(C)(O)CN1CCN(c2ccc3nc(-c4cccs4)c(-c4ccncc4)n3n2)CC1 . Its measured melting point is 165 to 168 °C

Consider O=C(O)c1cc2c3ccccc3n(Cc3ccccc3)c2s1 . Its measured melting point is 194 to 195 °C

Consider O=C(NCCc1ccccc1)c1ccccc1-c1ccccc1CNS(=O)(=O)c1cccc(C(F)(F)F)c1 . Its measured melting point is 145 °C

Consider CCCCOc1ccc(C(=O)O)c(OC)c1 . Its measured melting point is 94 to 96 °C

Consider CCCCC(C)c1cc(O)c2c(c1)OC(C)(C)CC2C1=CCN(CCc2ccccc2)CC1 (centres undefined) . Its measured melting point is 141 to 143 °C

###

MEASUREMENT_NAME: melting point

Past entries and their recorded results:
O=c1ccn([C@H]2[C@H](O)[C@H](O)CC[C@H]2O)c(=O)[nH]1 (racemic) ... 246 °C
O=c1[nH]c(=S)[nH]cc1Cc1cccc(Cl)c1 ... 192 to 195 °C
Cc1[nH]cnc1CC1CCc2c(c3ccccc3n2C)C1=O (single isomer, unassigned; (+)) ... 230 to 232 °C

Consider CCCCCCON=C(C(=O)OCC)c1csc(N)n1 . Its measured melting point is 77 to 78 °C

Consider CN1C(=O)CCC2(C)c3ccc(CC(=O)O)cc3CCC12 (stereo unspecified) . Its measured melting point is 200 to 202 °C

Consider CCCCCC(NS(=O)(=O)c1ccc(Cl)cc1)c1ccc(CCCC(=O)O)cc1 (single isomer, unassigned; (-)) . Its measured melting point is 134 to 137 °C

###

Each entry below carries its reported melting point.

Past entries and their recorded results:
CC(C)n1nc(-c2sc(NC(=O)NCc3ccccc3)nc2-c2ccccc2)ccc1=O ... 200 to 201 °C
Cc1cc(Br)cc(C=O)c1F ... 48 to 50 °C
COC(=O)Cc1ccc2nc(C(F)(F)F)cc(O)c2c1 ... 192 to 193 °C

Then this compound:
Consider COc1ccc(SCCCCSc2ccc(OC)cc2)cc1 . Its measured melting point is 102 to 103 °C

###

Each entry below carries its reported melting point.

Past entries and their recorded results:
CC1(C)OC(=S)N(c2cc(F)cc(C(F)(F)F)c2)c2ccccc21 ... 204 to 206 °C
Cc1ccc(Nc2cc(C(=O)O)c(Nc3ccc(C)cc3)cc2C(=O)O)cc1 ... 310 °C
OCc1cc(I)cc(I)c1I ... 156 to 159 °C
Clc1ccc2nc(CBr)c(CBr)nc2c1 ... 149 to 150 °C
NS(=O)(=O)c1ccc(-n2nc(C(F)F)cc2-c2nc3ccccc3s2)cc1 ... 247 to 249 °C
CS(=O)(=O)c1ccc(Cc2n[nH]c3c2c(=O)n(-c2ccccc2)c2ncccc32)cc1 ... 312 °C

Consider O=C(N(CCN(C(=O)C(F)(F)F)c1cccc2[nH]cc(Cl)c12)Cc1ccccc1)C(F)(F)F . Its measured melting point is 139 to 142 °C

Consider CC(C)(C)c1ccc(NC(=O)c2cccc3cc(Oc4cc(CO)ncn4)ccc23)cc1 . Its measured melting point is 202 to 203 °C

Consider O=c1[nH]nc2n1CCc1ccccc1C2 . Its measured melting point is 253 to 261 °C

Consider CC(C)(C)C(=O)Nc1onc2c1CCC2 . Its measured melting point is 113 °C

Consider CC(=O)C(C)=Cc1sccc1C . Its measured melting point is 72 °C

Consider CCc1cc(CCc2nc3ccccc3o2)c(=O)[nH]c1CO . Its measured melting point is 155 to 156 °C

Consider CSc1nc([C@@H]2C[C@H]2c2nc3ccccc3n2C)cc(-n2nc(C)nc2C)n1 (relative stereo) . Its measured melting point is 157 to 159 °C

###

Each entry below carries its reported melting point.

Past entries and their recorded results:
COC(=O)c1cc(NC(C)=O)ccc1OC ... 132 to 134 °C
COCc1c(C(O)c2ccccc2)ncc2[nH]c3ccc(OCc4ccccc4)cc3c12 (stereo not given) ... 190 to 191 °C
Cc1nc(N)c2nc(C)n(CCOC/C=C/c3ccccc3)c2c1C ... 144 to 145 °C
CC(C)(C)OC(=O)N1CCc2c(n(CCOc3ccccc3)c3c(Cl)cc(Cl)cc23)CC1 ... 154 to 155 °C
CCN(C(=O)c1ccc(CCSn2cnc3ccccc32)cc1)C1CCCCC1 ... 114 to 115 °C
C=C=COc1ccc(-c2ccc(OC=C=C)cc2)cc1 ... 135 to 138 °C
CC(O)C(C)N=[N+]([O-])c1ccc(O)cc1 (stereo not given) ... 124 to 125 °C
O=C1Nc2cc(Cl)ccc2C(=O)C1c1cccs1 (stereo not given) ... 305 to 307 °C
COc1ccc(C(=O)Oc2c(C)c(C)c3oc(C)c(-c4ccc(C(C)C)cc4)c3c2C)cc1 ... 113 to 115 °C

Then this molecule:
Consider CCN(C)c1cc(OC)c(C(=O)NC2CCN(Cc3ccccc3)C2)cc1Cl (stereo not given) . Its measured melting point is 76 to 77 °C

###

Each entry below carries its reported melting point.

CCc1cc(C(=O)O)c(O)cc1C ... 152 to 154 °C
COC(=O)c1cc2cc(OC)c(OC)cc2c(-c2ccnc(-n3c(=O)cc(OCC(=O)OCc4ccccc4)c4ccccc43)c2)c1C(=O)OC ... 186 to 189 °C
O=C(O)COCC(=O)NCCCCCCCNC(=O)OCc1ccccc1 ... 74 to 74.5 °C
CNC(=O)N(O)Cc1cccc(Nc2ccccc2C(=O)OC)c1C ... 173 to 175 °C
Cc1cc(C)c2c(n1)N(CCN(C)C)C(=O)N(C)C2 ... 105 to 107 °C
CS(=O)(=O)N1Cc2cccc(-c3ccc4cnc(Nc5ccc(C6CCN(CC(N)=O)CC6)cc5)nn34)c2C1 ... 244 to 247 °C

Then this compound:
Consider CS(=O)(=O)NCc1ccc([N+](=O)[O-])cc1 . Its measured melting point is 136 to 139 °C

The reported measurements were obtained from a melting point compilation (Tetko et al.; mined from patent text by program, amines drawn as free bases though some values may be those of a salt).
